Values compiled from PubChem BioAssay (NCATS).

PROTOCOL DETAILS: qHTS of pediatric cancer cell lines to identify multiple opportunities for drug repurposing: Primary screen for BT-37 cells (AID 1347094)
PARTICULARS: BT-37 viability, CellTiter-Glo luminescence, 48 h; series mostly up to 57.3 µM
Inconclusive results are not listed. Active and inactive are the calls of the source. The call rests on the fitted dose curve; in most records, active means well fitted cell-killing curve with a large enough effect; inconclusive means small, poorly fitted or top-dose-only effect; inactive means flat fitted curve, though single readings scatter.
Outcome codes: active, inactive

>>> label("CN(C)C(=O)CNC(=O)Cc1ccccc1")
"inactive"
>>> label("CCCc1c2oc(C(=O)O)cc(=O)c2cc2c(=O)cc(C(=O)O)n(CC)c12")
"inactive"
>>> label("O=C(O)C(=O)Nc1cccc(-c2nn[nH]n2)c1")
"inactive"
>>> label("C[C@@H](C1=C(CCN(C)C)Cc2ccccc21)c1ccccn1")
"inactive"
>>> label("O=C(O)c1ccccc1S")
"inactive"
>>> label("CN1CCN(N)CC1")
"inactive"
>>> label("Oc1cccc2[nH]ccc12")
"inactive"
>>> label("C/C(=N/NC(=O)c1ccncc1)C(=O)O")
"inactive"
>>> label("CC(CC(C#N)(c1ccccc1)C(C)C)N(C)C (stereo not drawn)")
"inactive"
>>> label("C[N+]1(C)CCC(OC(=O)C(O)(c2ccccc2)C2CCCC2)C1 (stereo not drawn)")
"inactive"
>>> label("CC[C@@]1(O)C(=O)OCc2c1cc1n(c2=O)Cc2c-1nc1ccccc1c2/C=N/OC(C)(C)C")
"active"
>>> label("Nc1c2ccccc2nc2ccccc12")
"active"
>>> label("NS(=O)(=O)c1ccc(N2CCCCS2(=O)=O)cc1")
"inactive"
